measurement-kind: IC50

API: value(readout=IC50, system=COX-1 (Homo sapiens, UniProt P23219)) for record CCCCSc1cc2c(cc1Cl)C=C(C(=O)O)C(C(F)(F)F)O2 (stereo not drawn)
70.8 µM

API: value(readout=IC50, system=COX-1 (Homo sapiens, UniProt P23219)) for record COc1c(Cl)c(Cl)c2c(c1Cl)C=C(C(=O)O)C(C(F)(F)F)O2 (stereo not drawn) [Example 20a]
< 0.137 µM

API: value(readout=IC50, system=COX-1 (Homo sapiens, UniProt P23219)) for record CCOc1ccc(Br)c2c1OC(C(F)(F)F)C(C(=O)O)=C2 (stereo not drawn) [Example 24b]
> 500 µM

API: value(readout=IC50, system=COX-1 (Homo sapiens, UniProt P23219)) for record COc1cccc(Cc2ccc3c(c2)OC(C(F)(F)F)C(C(=O)O)=C3)c1 (stereo not drawn)
> 100 µM

API: value(readout=IC50, system=COX-1 (Homo sapiens, UniProt P23219)) for record COc1cc2c(cc1C(C)(C)C)OC(C(F)(F)F)C(C(=O)O)=C2 (stereo not drawn)
> 100 µM

API: value(readout=IC50, system=COX-1 (Homo sapiens, UniProt P23219)) for record CCc1cc2c(cc1Cc1ccccc1)OC(C(F)(F)F)C(C(=O)O)=C2 (stereo not drawn) [Example 42b]
> 100 µM

API: value(readout=IC50, system=COX-1 (Homo sapiens, UniProt P23219)) for record CCOc1cc(C)cc2c1OC(C(F)(F)F)C(C(=O)O)=C2 (stereo not drawn)
> 500 µM

API: value(readout=IC50, system=COX-1 (Homo sapiens, UniProt P23219)) for record C=Cc1cc(OC(F)(F)F)cc2c1OC(C(F)(F)F)C(C(=O)O)=C2 (stereo not drawn) [Example 21n]
< 0.137 µM

API: value(readout=IC50, system=COX-1 (Homo sapiens, UniProt P23219)) for record CNc1c(Cl)cc2c(c1Cl)OC(C(F)(F)F)C(C(=O)O)=C2 (stereo not drawn) [Example 38b]
> 100 µM

---

measurement-kind: melting point

So what does the record say about melting point for O=C(O)C1=Cc2c(ccc(Cl)c2-c2ccccc2)OC1C(F)(F)F (stereo not shown) ?
229 to 231 °C

So what does the record say about melting point for CCc1cnc(Oc2cc3c(cc2Cl)C=C(C(=O)O)C(C(F)(F)F)O3)nc1 (stereo not shown) ?
96.5 to 98 °C

So what does the record say about melting point for Nc1c(Cl)ccc2c1C=C(C(=O)O)C(C(F)(F)F)O2 (stereo not shown) ?
208.5 to 210 °C

So what does the record say about melting point for CC(F)(F)c1ccc2c(c1)C=C(C(=O)O)C(C(F)(F)F)O2 (stereo not shown) [Example 34d] ?
156 to 158 °C (dec.)

So what does the record say about melting point for CCc1c(Cl)ccc2c1C=C(C(=O)O)C(C(F)(F)F)O2 (stereo not shown) ?
171.5 to 172.5 °C

So what does the record say about melting point for CCc1ccc(Oc2cc3c(cc2Cl)C=C(C(=O)O)[C@@H](C(F)(F)F)O3)cc1 (single isomer, unassigned) ?
90 to 95 °C

So what does the record say about melting point for O=C(O)C1=Cc2c(ccc(Cl)c2-c2ccco2)OC1C(F)(F)F (stereo not shown) ?
191 to 193 °C

---

measurement-kind: IC50

API: value(readout=IC50, system=UniProt:P23219) for record CCCOc1cc(Cl)c2c(c1)C=C(C(=O)O)C(C(F)(F)F)O2 (stereo not shown) [Example 17f]
11.8 µM

API: value(readout=IC50, system=UniProt:P23219) for record CC(C)CN(C)c1c(Cl)cc2c(c1Cl)OC(C(F)(F)F)C(C(=O)O)=C2 (stereo not shown) [Example 38a]
< 0.137 µM

API: value(readout=IC50, system=UniProt:P23219) for record O=C(O)C1=Cc2ccc(OCc3ccco3)cc2OC1C(F)(F)F (stereo not shown)
> 100 µM

API: value(readout=IC50, system=UniProt:P23219) for record Cc1c(O)c(Cl)cc2c1OC(C(F)(F)F)C(C(=O)O)=C2 (stereo not shown)
> 97.6 µM

API: value(readout=IC50, system=UniProt:P23219) for record Cc1cc(Cl)cc2c1O[C@@H](C(F)(F)F)C(C(=O)O)=C2 (single isomer, unassigned) [Example 21u]
> 100 µM

API: value(readout=IC50, system=UniProt:P23219) for record COc1ccc(Cl)c2c1OC(C(F)(F)F)C(C(=O)O)=C2 (stereo not shown) [Example 23d]
> 500 µM

API: value(readout=IC50, system=UniProt:P23219) for record COCCOc1ccc2c(c1)OC(C(F)(F)F)C(C(=O)O)=C2 (stereo not shown)
> 100 µM

API: value(readout=IC50, system=UniProt:P23219) for record CCCCN(CC)c1cc2c(cc1Cl)C=C(C(=O)O)C(C(F)(F)F)O2 (stereo not shown)
> 100 µM

API: value(readout=IC50, system=UniProt:P23219) for record CCCCc1cc2c(cc1Cc1ccccc1)OC(C(F)(F)F)C(C(=O)O)=C2 (stereo not shown) [Example 42d]
58.3 µM

API: value(readout=IC50, system=UniProt:P23219) for record O=C(O)C1=Cc2cc(Cl)c(SCc3ccccc3)cc2OC1C(F)(F)F (stereo not shown)
> 100 µM

API: value(readout=IC50, system=UniProt:P23219) for record CCCOc1cccc2c1OC(C(F)(F)F)C(C(=O)O)=C2 (stereo not shown) [Example 25e]
> 100 µM

API: value(readout=IC50, system=UniProt:P23219) for record CCCOc1ccc(Cl)c2c1OC(C(F)(F)F)C(C(=O)O)=C2 (stereo not shown) [Example 23a]
> 500 µM

API: value(readout=IC50, system=UniProt:P23219) for record CCC(CC)COc1cc2c(cc1Cl)C=C(C(=O)O)C(C(F)(F)F)O2 (stereo not shown)
51.6 µM

API: value(readout=IC50, system=UniProt:P23219) for record COc1ccc(Cc2cc3c(cc2Cl)C=C(C(=O)O)C(C(F)(F)F)O3)cc1Cl (stereo not shown)
80.8 µM

API: value(readout=IC50, system=UniProt:P23219) for record CCCCOc1cccc2c1OC(C(F)(F)F)C(C(=O)O)=C2 (stereo not shown) [Example 25f]
> 100 µM

API: value(readout=IC50, system=UniProt:P23219) for record CCCc1cc2c(cc1Cc1ccccc1)OC(C(F)(F)F)C(C(=O)O)=C2 (stereo not shown) [Example 42c]
> 100 µM

API: value(readout=IC50, system=UniProt:P23219) for record Cc1c(Cc2ccccc2)ccc2c1OC(C(F)(F)F)C(C(=O)O)=C2 (stereo not shown) [Example 14b]
< 0.137 µM

API: value(readout=IC50, system=UniProt:P23219) for record COc1ccc(Br)c2c1OC(C(F)(F)F)C(C(=O)O)=C2 (stereo not shown) [Example 24a]
> 500 µM

API: value(readout=IC50, system=UniProt:P23219) for record CC(c1ccccc1)c1ccc2c(c1)OC(C(F)(F)F)C(C(=O)O)=C2 (stereo not shown) [Example 37b]
> 100 µM

API: value(readout=IC50, system=UniProt:P23219) for record COc1cc(Cl)c2c(c1)C=C(C(=O)O)[C@H](C(F)(F)F)O2 (single isomer, unassigned) [Example 17h]
> 100 µM

API: value(readout=IC50, system=UniProt:P23219) for record Cc1cc(C)c2c(c1)C=C(C(=O)O)[C@@H](C(F)(F)F)O2 (single isomer, unassigned) [Example 32b]
> 100 µM

API: value(readout=IC50, system=UniProt:P23219) for record CC(C)(C)c1cc(Cl)c2c(c1)C=C(C(=O)O)C(C(F)(F)F)O2 (stereo not shown)
2.87 µM

API: value(readout=IC50, system=UniProt:P23219) for record CCc1ccc2c(c1)C=C(C(=O)O)C(C(F)(F)F)O2 (stereo in doubt) [Example 34c]
> 100 µM

API: value(readout=IC50, system=UniProt:P23219) for record CC(C)CNc1c(Cl)cc2c(c1Cl)OC(C(F)(F)F)C(C(=O)O)=C2 (stereo not shown) [Example 38c]
< 0.137 µM

API: value(readout=IC50, system=UniProt:P23219) for record CC1CCN(c2cc3c(cc2Cl)C=C(C(=O)O)C(C(F)(F)F)O3)CC1 (stereo not shown)
> 100 µM

API: value(readout=IC50, system=UniProt:P23219) for record Cc1cc(C)c(Cc2cc3c(cc2Cl)C=C(C(=O)O)C(C(F)(F)F)O3)cc1Cl (stereo not shown)
5.5 µM

API: value(readout=IC50, system=UniProt:P23219) for record CC(C)(C(=O)O)c1cc2c(cc1Cl)C=C(C(=O)O)C(C(F)(F)F)O2 (stereo not shown)
> 100 µM

API: value(readout=IC50, system=UniProt:P23219) for record C=C(C)c1cc2c(cc1Cl)C=C(C(=O)O)C(C(F)(F)F)O2 (stereo not shown)
> 100 µM

API: value(readout=IC50, system=UniProt:P23219) for record Cc1c(Cc2ccccc2)c(Cl)cc2c1OC(C(F)(F)F)C(C(=O)O)=C2 (stereo not shown) [Example 14a]
< 0.137 µM

API: value(readout=IC50, system=UniProt:P23219) for record O=C(O)C1=Cc2cccc(Oc3ccc([N+](=O)[O-])cc3F)c2OC1C(F)(F)F (stereo not shown) [Example 25a]
> 500 µM

API: value(readout=IC50, system=UniProt:P23219) for record CCCCCc1cc(OC(F)(F)F)cc2c1OC(C(F)(F)F)C(C(=O)O)=C2 (stereo not shown) [Example 21j]
40.4 µM
